Experiment: Apparent permeability across apical to basolateral side in human Caco2 cells at 10 uM
Type: ADME, cell-based
Details: Caco-2
recorded endpoint: Papp A→B at 10 µM (×10⁻⁶ cm/s)
Answers are plain numbers, in ×10⁻⁶ cm/s.

Tell me its Papp A→B at 10 µM given Cl.Cl.O=C(CN1CCOCC1)Nc1ccc(OC2CCN(C3CCC3)CC2)cc1 as the entry. 30.8

###

Test: Metabolic stability in rat liver microsomes in presence of NADPH after 30 mins by LC-MS/MS analysis
Assay type: ADME, Microsome
Conditions: read-out: Stability
recorded endpoint: remaining at 0.5 h
Report field: quantity (unit follows the number).

Tell me its remaining at 0.5 h given Cl.Cl.O=C(CN1CCOCC1)Nc1ccc(OC2CCN(C3CCC3)CC2)cc1 as the entry. 27%
